# target under test: HLA-A*03:01 (Homo sapiens, UniProt P04439)
# assay text: MHC binding assay (UV-ligand exchange, β2m ELISA)
# condition context: binding to HLA-A*03:01, UV-ligand exchange, β2m ELISA
attribute measured: Peptide exchange (MHC class I binding score, peptide exchange yield)

104 (AVVQGLVEK; listed as Homo sapiens) [compound 104]    ++ (>20% = ++)
50 (HSAGIFSMY; listed as Homo sapiens) [compound 50]    ++ (>20% = ++)
124 (VVYDTMIEK; listed as Homo sapiens) [compound 124]    +++ (>50 = +++)
30 (ILDSSLLK; listed as Homo sapiens) [compound 30]    ++ (>20% = ++)
43 (TVYDSIWCNMK; listed as Homo sapiens) [compound 43]    ++++ (>75% = ++++)

List reported Peptide exchange (MHC class I binding score, peptide exchange yield) for each of these substances:
1. 221 (RLAVSTRGK; listed as Homo sapiens) [compound 221]
2. 73 (RCFSGPYLNK; listed as Homo sapiens) [compound 73]
3. 79 (AVAAVLLSR; listed as Homo sapiens) [compound 79]

A)
["++++ (>75% = ++++)", "++++ (>75% = ++++)", "+++ (>50 = +++)"]

Q) Given the substance 177 (ALLGVIIAKK; listed as Homo sapiens) [compound 177] , what is its reported Peptide exchange (MHC class I binding score, peptide exchange yield)?
A) ++++ (>75% = ++++)

Sourced from patent US11872270B2
